assay: Oral bioavailability in rat; type: ADME, organism-based; settings: in vivo
OBSERVATION_TYPE: bioavailability (%)

The examples below pair each entry with its known result.
Cc1ccc(S(=O)(=O)NC(=O)N2CCC(N3CCC(Oc4ccc(Cl)c(Cl)c4)CC3)CC2)cc1 ... 30
O=C(O)C(c1ccccc1)N1CCO[C@H](CN2CCC(Oc3ccc(Cl)c(Cl)c3)CC2)C1 (mixture of isomers) ... 36
O=C(O)[C@H](Cc1ccccc1)N1CCC(CN2CCC(Oc3ccc(Cl)c(Cl)c3)CC2)CC1 ... 62

[P] Cc1cc(F)ccc1OC1CCN(CC2CCN([C@@](C)(Cc3ccc(F)cc3)C(=O)O)CC2)CC1
[Q] O=C(O)c1ccccc1N1CCC(CN2CCC(Oc3ccc(Cl)c(Cl)c3)CC2)CC1
[R] O=C(O)C(c1ccccc1)N1CCC(N2CCC(Oc3ccc(Cl)c(Cl)c3)CC2)CC1 (racemic)
[Q] rank_up(items): orders items by reported bioavailability in ascending numerical order. Would you mind listing the labels in the order requested?
[A] R, P, Q

[A] Cc1cc(OC2CCN(CC3CCN([C@@](C)(Cc4ccc(F)cc4)C(=O)O)CC3)CC2)ccc1Cl
[B] O=C(O)[C@@H](c1ccccc1)N1CCC(CN2CCC(Oc3ccc(Cl)c(Cl)c3)CC2)CC1
[Q] Which record would sort first by descending bioavailability, A or B ? // caller expects the label of the chosen entry
[A] A
